Source listed as ChEMBL document CHEMBL5038598.

- assay.remarks: Binding affinity to human PIP5K2C (M1/A421) WT expressed in mammalian system assessed as dissociation constant measured at 1 uM by DiscoveRx KINOMEscan assay
recorded.metric: Kd
Note: state the figure and append the unit.

In [3]: df
Out[3]:
                                 mol_smiles  recorded_metric  observed
0  Cc1c(Nc2nc(N)c3c(C#N)c(N4CCC[C@H]4C)n(C)c3n2)cnn1[C@H]1CCOC1               Kd    430 nM

Shifting focus to the compound that follows.
Q. Name the reported Kd value associated with the compound Cc1c(Nc2nc(N)c3c(C#N)c(N4CCC[C@H]4C)n(C)c3n2)cnn1[C@@H]1CCOC1
A. 190 nM

---

- assay.remarks: Ratio of unbound drug level in Md1a deficient C57BL/6 mouse brain to plasma at 5 mg/kg, sc and measured after 1 hrs
- Format: ADME, organism-based
recorded.metric: Kp uu at 1 h
Lab note: jot down the number only; don't add units.

Q. Name the reported Kp uu at 1 h value associated with the compound Cc1c(Nc2nc(N)c3c(C#N)c(N4CCC[C@H]4C)n(C)c3n2)cnn1[C@H]1CCOC1
A. 0.056

---

- assay.remarks: Oral bioavailability in Sprague-Dawley rat plasma at 2 mg/kg relative to liver blood flow
- Assay type: ADME, organism-based
Measured bioavailability accompanies every entry in the list below.

>>> df
                                 mol_smiles  recorded_metric  observed
0  Cc1c(Nc2nc(N)c3c(C#N)c(N4CCC[C@H]4C)n(C)c3n2)cnn1[C@@H]1CCOC1  bioavailability        5%

Shifting focus to the compound that follows.
Q. Name the reported bioavailability value associated with the compound Cc1c(Nc2nc(N)c3c(C#N)c(N4CCC[C@H]4C)n(C)c3n2)cnn1[C@H]1CCOC1
A. < 1%

---

Measured pKi accompanies every entry in the list below.
- system.tested: Leucine-rich repeat serine/threonine-protein kinase 2 (Homo sapiens, UniProt Q5S007, G2019S)
- Sequence (Q5S007 whole entry G2019S, the tested form may be a part): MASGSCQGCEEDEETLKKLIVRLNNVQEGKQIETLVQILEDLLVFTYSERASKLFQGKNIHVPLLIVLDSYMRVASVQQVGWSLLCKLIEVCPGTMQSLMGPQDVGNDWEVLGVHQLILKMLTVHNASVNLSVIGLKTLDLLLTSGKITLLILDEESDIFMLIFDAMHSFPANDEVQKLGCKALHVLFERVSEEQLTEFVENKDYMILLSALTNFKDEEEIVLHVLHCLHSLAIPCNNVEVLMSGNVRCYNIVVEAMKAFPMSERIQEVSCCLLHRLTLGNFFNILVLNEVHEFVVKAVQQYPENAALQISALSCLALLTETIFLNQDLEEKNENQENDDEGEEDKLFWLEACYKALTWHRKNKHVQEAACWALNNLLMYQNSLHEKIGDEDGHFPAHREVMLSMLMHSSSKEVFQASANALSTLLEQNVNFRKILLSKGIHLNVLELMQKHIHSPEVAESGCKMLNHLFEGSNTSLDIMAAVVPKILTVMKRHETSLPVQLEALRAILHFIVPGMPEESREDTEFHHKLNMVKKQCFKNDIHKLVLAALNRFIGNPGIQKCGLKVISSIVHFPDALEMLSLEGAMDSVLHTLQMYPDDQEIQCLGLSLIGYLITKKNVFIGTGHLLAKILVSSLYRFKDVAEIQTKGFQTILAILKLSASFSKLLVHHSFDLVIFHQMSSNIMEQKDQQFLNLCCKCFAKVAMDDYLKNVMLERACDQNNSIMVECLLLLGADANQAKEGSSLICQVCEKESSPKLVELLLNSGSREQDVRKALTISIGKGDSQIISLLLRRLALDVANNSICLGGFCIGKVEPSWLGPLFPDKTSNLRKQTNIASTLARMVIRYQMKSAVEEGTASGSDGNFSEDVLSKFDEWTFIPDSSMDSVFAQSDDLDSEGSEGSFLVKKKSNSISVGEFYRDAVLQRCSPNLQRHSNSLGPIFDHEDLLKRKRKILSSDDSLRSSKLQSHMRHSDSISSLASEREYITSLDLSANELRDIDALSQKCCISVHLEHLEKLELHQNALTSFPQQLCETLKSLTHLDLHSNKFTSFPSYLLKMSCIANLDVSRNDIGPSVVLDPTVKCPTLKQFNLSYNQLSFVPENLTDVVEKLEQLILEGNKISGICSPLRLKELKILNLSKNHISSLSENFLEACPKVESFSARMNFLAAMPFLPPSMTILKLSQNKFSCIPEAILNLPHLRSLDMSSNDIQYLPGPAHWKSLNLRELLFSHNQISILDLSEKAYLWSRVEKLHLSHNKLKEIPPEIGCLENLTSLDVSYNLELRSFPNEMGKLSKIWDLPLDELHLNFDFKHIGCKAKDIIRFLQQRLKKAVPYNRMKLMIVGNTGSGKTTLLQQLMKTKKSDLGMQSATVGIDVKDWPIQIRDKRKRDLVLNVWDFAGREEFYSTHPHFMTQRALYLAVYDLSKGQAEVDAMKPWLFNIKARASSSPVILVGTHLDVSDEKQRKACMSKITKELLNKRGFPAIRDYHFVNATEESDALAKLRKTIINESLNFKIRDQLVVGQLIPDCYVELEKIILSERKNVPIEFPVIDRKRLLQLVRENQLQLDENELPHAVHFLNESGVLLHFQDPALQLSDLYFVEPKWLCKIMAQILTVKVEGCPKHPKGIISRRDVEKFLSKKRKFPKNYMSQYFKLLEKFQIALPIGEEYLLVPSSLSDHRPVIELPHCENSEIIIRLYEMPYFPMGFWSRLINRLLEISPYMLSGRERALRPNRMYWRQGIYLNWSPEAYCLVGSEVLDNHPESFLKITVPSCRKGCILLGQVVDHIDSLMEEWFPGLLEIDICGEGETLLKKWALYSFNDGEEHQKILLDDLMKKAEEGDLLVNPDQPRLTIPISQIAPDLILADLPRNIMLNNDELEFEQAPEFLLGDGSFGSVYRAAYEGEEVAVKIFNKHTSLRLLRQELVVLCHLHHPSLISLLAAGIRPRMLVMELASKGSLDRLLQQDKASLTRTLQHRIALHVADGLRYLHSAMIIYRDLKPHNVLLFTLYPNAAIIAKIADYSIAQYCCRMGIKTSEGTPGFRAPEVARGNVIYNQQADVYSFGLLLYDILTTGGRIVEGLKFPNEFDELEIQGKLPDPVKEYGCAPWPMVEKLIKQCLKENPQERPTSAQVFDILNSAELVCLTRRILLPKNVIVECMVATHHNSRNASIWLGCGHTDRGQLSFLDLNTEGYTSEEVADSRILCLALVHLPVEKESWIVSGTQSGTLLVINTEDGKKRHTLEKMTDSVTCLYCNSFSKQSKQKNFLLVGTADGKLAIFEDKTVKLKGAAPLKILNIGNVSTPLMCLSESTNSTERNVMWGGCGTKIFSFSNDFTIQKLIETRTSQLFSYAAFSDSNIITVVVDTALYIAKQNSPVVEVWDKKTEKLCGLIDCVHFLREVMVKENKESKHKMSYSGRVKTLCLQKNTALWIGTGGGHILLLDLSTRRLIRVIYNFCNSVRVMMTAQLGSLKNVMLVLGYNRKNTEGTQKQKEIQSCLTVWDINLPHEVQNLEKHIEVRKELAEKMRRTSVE
- assay.remarks: Binding affinity to human GST tagged truncated LRRK2 G2019S mutant incubated for 2 hrs by TR-FRET based Lanthascreen kinase activity assay
Note: pKi values are expressed as the negative base-10 logarithm of concentration in M.

Examples with their reported pKi follow.
                               mol_smiles  observed
0             CN(C)c1c(C#N)c2c(N)ncnc2n1C      6.59
1         Cn1c(N2CCCC2)c(C#N)c2c(N)ncnc21      6.90
2  C[C@@H]1CCCN1c1c(C#N)c2c(N)nc(N)nc2n1C      7.89
3        Cn1c(-n2cccc2)c(C#N)c2c(N)ncnc21      5.70

Q. Name the reported pKi value associated with the compound C[C@@H]1CCCN1c1c(C#N)c2c(N)nc(Nc3cnn(C)c3)nc2n1C
A. 9.52

Q. Name the reported pKi value associated with the compound Cc1cn(C)nc1Nc1cc2c(c(N)n1)c(C#N)c(N1CCC[C@H]1C)n2C
A. 7.12

Q. Name the reported pKi value associated with the compound Cc1n[nH]cc1Nc1nc(N)c2c(C#N)c(N3CCC[C@H]3C)n(C)c2n1
A. 8.70

Q. Name the reported pKi value associated with the compound CN(C)c1ncnc2nc[nH]c12
A. 5.85

Q. Name the reported pKi value associated with the compound C[C@@H]1CCCN1c1c(C#N)c2c(N)nc(Nc3ccn(C)n3)cc2n1C
A. 7.89
